Where do these numbers come from? They come from PubChem BioAssay (NCATS).

- Target or system: Tyrosine-protein phosphatase non-receptor type substrate 1 (Homo sapiens) + Leukocyte surface antigen CD47 (Homo sapiens) (UniProt P78324+Q08722)
- Sequence (P78324 whole entry, looked up, the tested form may be a part): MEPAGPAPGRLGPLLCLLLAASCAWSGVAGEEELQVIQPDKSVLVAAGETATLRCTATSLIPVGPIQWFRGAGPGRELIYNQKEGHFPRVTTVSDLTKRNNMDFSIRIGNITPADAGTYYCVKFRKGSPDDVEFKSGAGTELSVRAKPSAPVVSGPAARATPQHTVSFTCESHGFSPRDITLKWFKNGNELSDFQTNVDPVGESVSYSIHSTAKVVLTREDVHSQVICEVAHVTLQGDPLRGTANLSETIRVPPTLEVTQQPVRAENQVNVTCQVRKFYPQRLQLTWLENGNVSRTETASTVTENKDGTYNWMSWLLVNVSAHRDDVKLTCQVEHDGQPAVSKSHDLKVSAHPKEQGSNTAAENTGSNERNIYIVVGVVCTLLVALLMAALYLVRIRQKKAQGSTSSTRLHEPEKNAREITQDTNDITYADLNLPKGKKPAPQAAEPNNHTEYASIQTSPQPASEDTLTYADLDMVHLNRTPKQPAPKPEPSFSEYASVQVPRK
- Sequence (Q08722 whole entry, looked up, the tested form may be a part): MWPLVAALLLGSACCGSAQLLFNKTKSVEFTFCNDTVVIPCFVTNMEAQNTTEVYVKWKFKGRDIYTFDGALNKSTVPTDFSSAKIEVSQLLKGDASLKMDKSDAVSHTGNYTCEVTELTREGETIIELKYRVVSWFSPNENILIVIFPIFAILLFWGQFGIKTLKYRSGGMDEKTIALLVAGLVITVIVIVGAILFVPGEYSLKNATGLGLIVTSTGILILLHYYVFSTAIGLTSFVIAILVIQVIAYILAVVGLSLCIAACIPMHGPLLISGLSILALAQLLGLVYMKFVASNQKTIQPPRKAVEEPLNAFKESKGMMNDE
- Test details: CD47-SIRPalpha protein protein interaction - HTRF assay qHTS validation (AID 1347058);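 further: recombinant soluble extracellular CD47 with His tag and biotinylated SIRPalpha domains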
- Measurement conditions: TR-FRET HTRF CD47-His / biotin-SIRPalpha binding, ratio 665/615; series mostly up to 38.3 µM
Records with an inconclusive call do not appear. Activity calls are given as the source filed them. The call rests on the fitted dose curve; in most records, active means well fitted curve in the direction sought with a large enough effect in the signal ratio (not every such curve was filed as active); inconclusive means small, poorly fitted or top-dose-only effect, or effect the other way, or a change in a side signal; inactive means no such curve, though single readings can be large or run the other way; the % refers to the signal ratio.
Metric: outcome

Before answering, review these 10 worked examples.
Molecule: O=C(/C=C/c1ccc(O)c(O)c1)OCCc1ccccc1
Meas value: inactive
//
Molecule: Oc1cc2c(cc1O)CN(C(=S)NCCc1ccc(Cl)cc1)CCC2
Meas value: inactive
//
Molecule: CCN(CC)c1ncnc2c1ncn2[C@@H]1O[C@H](COP(=O)(O)OP(=O)(O)C(Br)(Br)P(=O)(O)O)[C@@H](O)[C@H]1O
Meas value: inactive
//
Molecule: CNC(=O)[C@H]1O[C@@H](n2cnc3c(NCc4ccc(N)cc4)ncnc32)[C@H](O)[C@@H]1O
Meas value: inactive
//
Molecule: CC(C)(NS(=O)(=O)c1ccc(Oc2ccc(F)cc2)cc1)C(=O)NO
Meas value: inactive
//
Molecule: OC[C@H]1O[C@@H](n2cnc3c(NC4CCCC4)ncnc32)[C@H](O)[C@@H]1O
Meas value: inactive
//
Molecule: CN[C@H](CC(C)C)C(=O)N[C@H]1C(=O)N[C@@H](CC(N)=O)C(=O)N[C@H]2C(=O)N[C@H]3C(=O)N[C@H](C(=O)N[C@H](C(=O)O)c4cc(O)cc(O)c4-c4cc3ccc4O)[C@H](O)c3ccc(c(Cl)c3)Oc3cc2cc(c3O[C@@H]2O[C@H](CO)[C@@H](O)[C@H](O)[C@H]2O[C@H]2C[C@](C)(N)[C@H](O)[C@H](C)O2)Oc2ccc(cc2Cl)[C@H]1O
Meas value: inactive
//
Molecule: COC(=O)C1=C(C)NC(C)=C(C(=O)OC)C1c1cccc(NC(=O)NCCCN2CCC(c3cccc(OC)c3)CC2)c1
Meas value: inactive
//
Molecule: Nc1nc(Nc2ccccc2)nc2c1ncn2[C@@H]1O[C@H](CO)[C@@H](O)[C@H]1O
Meas value: inactive
//
Molecule: CO/N=C(\C(=O)N[C@@H]1C(=O)N2C(C(=O)O)=C(COC(C)=O)CS[C@H]12)c1csc(N)n1
Meas value: inactive

Look at each molecule and report its outcome.
1. CN1[C@@H](CC(=O)c2ccccc2)CCC[C@H]1C[C@H](O)c1ccccc1
2. Fc1ccc(C(OCCCc2cnc[nH]2)c2ccc(F)cc2)cc1
3. CC[C@H]1OC(=O)[C@H](C)C(O[C@H]2C[C@@](C)(OC)[C@@H](O)[C@H](C)O2)[C@H](C)[C@@H](OC2O[C@H](C)C[C@H](N(C)C)[C@H]2O)[C@](C)(O)C[C@@H](C)CN(C)[C@H](C)[C@@H](O)[C@]1(C)O (stereo partly specified)
4. Nc1ncnc2c1ncn2[C@@H]1O[C@H](COP(=O)(O)CP(=O)(O)OP(=O)(O)O)[C@@H](O)[C@H]1O

inactive
inactive
inactive
inactive

Look at each molecule and report its outcome.
1. Nc1nc2c(ncn2[C@@H]2O[C@H](CO)[C@@H](O)[C@@H]2O)c(=O)[nH]1
2. CSc1nc(N)c2ncn([C@@H]3O[C@H](COP(=O)(O)OP(=O)(O)OP(=O)(O)O)[C@@H](O)[C@H]3O)c2n1
3. C[C@@H](CN1CCC(Cc2ccccc2)CC1)[C@@H](O)c1ccc(O)cc1
4. CS(=O)(=O)c1ccc(-n2nc(C(F)(F)F)cc2-c2ccc(F)cc2)cc1
5. Clc1ccc(N2CCN(Cc3cc4ccccn4n3)CC2)cc1

1. inactive
2. inactive
3. inactive
4. inactive
5. inactive

Look at each molecule and report its outcome.
1. Fc1ccc2[nH]c(CN3CCN(c4ccccn4)CC3)cc2c1
2. Brc1cc2c(cc1[C@H]1Nc3ccccc3[C@H]3C=CC[C@H]31)OCO2

["inactive", "inactive"]

Look at each molecule and report its outcome.
1. Fc1cccc(/C=N/N=C/c2cccc(F)c2)c1
2. Cn1c(=O)c(-c2c(Cl)cccc2Cl)cc2cnc(Nc3ccc(N4CCOCC4)cc3)nc21
3. O=C(CCc1ccncc1)NNC(=O)N1Cc2ccccc2Oc2ccc(Cl)cc21
4. COCCOc1cc2nc[nH]c(=O)c2cc1OCCOC

1: inactive; 2: inactive; 3: inactive; 4: inactive

Look at each molecule and report its outcome.
1. Nc1nc(Cl)nc2c1ncn2[C@@H]1O[C@H](CO)[C@@H](O)[C@H]1O
2. CCCN(CC1CC1)c1nc(C)nc(Nc2c(Cl)cc(Cl)cc2Cl)c1Cl
3. CC12C(=O)OC(=O)C1(C)C1CCC2O1 (stereo unspecified)
4. CO[C@H]1O[C@@H]2O[C@]3(C)CC[C@@H]4[C@@H](C)CC[C@H]([C@H]1C)[C@]24OO3

1: inactive; 2: inactive; 3: inactive; 4: inactive

Look at each molecule and report its outcome.
1. COc1ccccc1CN[C@@H]1CCCN[C@@H]1c1ccccc1
2. CC(N)C(=O)OC(C)(C)Cc1ccc(Cl)cc1 (stereo unspecified)

inactive
inactive

Look at each molecule and report its outcome.
1. CCNc1nc2c(ncn2[C@H]2C[C@H](O)[C@@H](CO)O2)c(=O)[nH]1
2. C=CC(C)=C[C@@]1(C)SC(=O)C(C)=C1O
3. Nc1nc(OCC2CCCCC2)c2[nH]cnc2n1
4. CCOC(=O)C1=C(C)NC(C)=C(C(=O)OCC)C1c1c(F)c(F)c(F)c(F)c1F
5. CC(C)(C=O)Cc1cc(C(C)(C)C)c(O)c(C(C)(C)C)c1

1: inactive; 2: inactive; 3: inactive; 4: inactive; 5: inactive
